Test system: human PKK mRNA
experiment: Dose-dependent antisense inhibition of human PKK in HepaRG cells, 0.19-5.00 uM (Example 5)
Type: cell-based
applied_conditions: 4 point dose response, HepaRG cells; Table 36
Strand notation (5' to 3'): a small letter for the sugar, then the base; units joined by * are phosphorothioate-linked, units joined directly phosphodiester-linked; [ ] holds rarer units or linkages, { } end groups; capitals alone tell only the bases. e = 2'-O-(2-methoxyethyl) (MOE); [5mC] = 5-methylcytosine; d = 2'-deoxy (DNA)
experimental_readout: IC50 (nM)

substance	experimental_target	value_measured
547617 (antisense e[5mC]*eT*eG*eT*e[5mC]*d[5mC]*dT*dA*dT*dA*dT*d[5mC]*dA*d[5mC]*dT*eG*eT*eA*e[5mC]*e[5mC]) [compound 547617]	human PKK mRNA	200
548770 (antisense eT*eA*eA*e[5mC]*dA*dG*dT*dA*dT*d[5mC]*dA*d[5mC]*dT*eG*eT*e[5mC]*e[5mC]) [compound 548770]	human PKK mRNA	500
546986 (e[5mC]*eA*eG*eG*eA*dT*dA*dG*dA*dA*d[5mC]*dT*dG*dA*dT*eG*eG*eT*e[5mC]*e[5mC]; antisense) [compound 546986]	human PKK mRNA	500

---

System: human PKK mRNA
experiment: Dose-dependent antisense inhibition of human PKK in HepaRG cells, 0.11-3.00 uM (Example 6)
Type: cell-based
applied_conditions: 0.11-3.00 μM
pIC50: −log10 of the molar value. Strand notation (5' to 3'): a small letter for the sugar, then the base; units joined by * are phosphorothioate-linked, units joined directly phosphodiester-linked; [ ] holds rarer units or linkages, { } end groups; capitals alone tell only the bases. e = 2'-O-(2-methoxyethyl) (MOE); k = constrained ethyl (cEt); [5mC] = 5-methylcytosine; d = 2'-deoxy (DNA)
// values below are reported pIC50
experimental_readout: pIC50

> print(dat)
                                   substance  experimental.readout  value.measured
 1  548070 (e[5mC]*e[5mC]*k[5mC]*dA*dA*d[5mC]*dA*dG*dT*dT*dG*dG*dT*kA*kT*eA; antisense) [compound 548070]                 pIC50            5.96
 2  547857 (antisense e[5mC]*eT*k[5mC]*dA*dT*dA*dT*d[5mC]*dA*dA*d[5mC]*dT*d[5mC]*k[5mC]*kT*eT) [compound 547857]                 pIC50            6.70
 3  548174 (eT*e[5mC]*kT*d[5mC]*dA*dG*dT*dT*dG*d[5mC]*dG*dA*d[5mC]*k[5mC]*kT*e[5mC]; antisense) [compound 548174]                 pIC50            5.70
 4  548010 (eA*eG*kT*dG*dT*dT*dA*d[5mC]*dA*d[5mC]*dA*dA*dT*k[5mC]*kT*e[5mC]; antisense) [compound 548010]                 pIC50            5.85
 5  547769 (antisense eT*eT*kG*dG*dA*dG*dG*dT*dG*dA*dG*dT*d[5mC]*kT*k[5mC]*eT) [compound 547769]                 pIC50            6.22
 6  547859 (antisense e[5mC]*e[5mC]*kT*d[5mC]*dT*d[5mC]*dA*dT*dA*dT*d[5mC]*dA*dA*k[5mC]*kT*e[5mC]) [compound 547859]                 pIC50            6.52
 7  548668 (antisense eG*eG*kG*dA*dG*d[5mC]*dT*dT*dT*d[5mC]*dA*dT*dG*kG*k[5mC]*eT) [compound 548668]                 pIC50            6.15
 8  548247 (antisense e[5mC]*eG*kA*dT*dT*dT*dT*d[5mC]*d[5mC]*dA*dT*dG*d[5mC]*kA*kT*eA) [compound 548247]                 pIC50            6.30
 9  548024 (eG*e[5mC]*kT*dG*dT*d[5mC]*dA*dG*d[5mC]*dT*dT*d[5mC]*dA*k[5mC]*k[5mC]*eT; antisense) [compound 548024]                 pIC50            6.52
10  548667 (antisense eT*eG*kG*d[5mC]*dA*dA*dG*d[5mC]*dT*dA*d[5mC]*d[5mC]*dT*kT*k[5mC]*eT) [compound 548667]                 pIC50            6.15
11  548486 (e[5mC]*eG*kT*dG*dG*dT*dT*dA*dG*d[5mC]*d[5mC]*dT*dG*kA*k[5mC]*eA; antisense) [compound 548486]                 pIC50            6.40
12  548583 (eG*eG*kG*dA*dA*dT*dT*dT*dA*dT*dG*d[5mC]*dT*kG*k[5mC]*e[5mC]; antisense) [compound 548583]                 pIC50            6.70

---

Item-by-item account of % inhibition
Test system: human PKK mRNA
experiment: Antisense inhibition of human PKK mRNA in HepaRG cells, 1,000 nM, MOE/deoxy/cEt oligonucleotides (Example 3)
Assay type: cell-based
applied_conditions: Table 27; HepaRG cells, 1,000 nM antisense oligonucleotide; human PKK mRNA
Strand notation (5' to 3'): a small letter for the sugar, then the base; units joined by * are phosphorothioate-linked, units joined directly phosphodiester-linked; [ ] holds rarer units or linkages, { } end groups; capitals alone tell only the bases. e = 2'-O-(2-methoxyethyl) (MOE); k = constrained ethyl (cEt); [5mC] = 5-methylcytosine; d = 2'-deoxy (DNA)
experimental_readout: % inhibition (%)

> print(dat)
                                  substance  experimental.target  value.measured
1  548374 (eG*e[5mC]*kA*d[5mC]*d[5mC]*d[5mC]*dT*dT*dT*dT*d[5mC]*dA*dT*kT*kG*eA; antisense) [compound 548374]       human PKK mRNA              41
2  548309 (eA*eG*kA*d[5mC]*dA*dG*dT*dT*dG*dG*dT*dG*dG*kT*kT*eT; antisense) [compound 548309]       human PKK mRNA              41
3  548378 (eG*e[5mC]*kA*dA*dG*dA*dT*dG*d[5mC]*dA*dT*dG*d[5mC]*kA*kG*e[5mC]; antisense) [compound 548378]       human PKK mRNA              49
4  548335 (antisense eT*eA*kG*d[5mC]*dA*dT*d[5mC]*dA*dT*dG*d[5mC]*d[5mC]*dA*k[5mC]*kA*eG) [compound 548335]       human PKK mRNA              51
5  548370 (eA*e[5mC]*kG*dA*dA*dG*dT*d[5mC]*dT*d[5mC]*dT*dT*dT*k[5mC]*k[5mC]*eT; antisense) [compound 548370]       human PKK mRNA              53
6  548345 (antisense e[5mC]*eT*kA*dA*d[5mC]*dT*d[5mC]*d[5mC]*dA*dT*d[5mC]*dA*d[5mC]*kT*kG*e[5mC]) [compound 548345]       human PKK mRNA              55

---

Test system: human PKK mRNA
experiment: Dose-dependent antisense inhibition of human PKK in HepaRG cells, 0.12-10.00 uM (Example 4)
Assay type: cell-based
applied_conditions: Table 32, 3.33 μM, electroporation, ~16 h
Strand notation (5' to 3'): a small letter for the sugar, then the base; units joined by * are phosphorothioate-linked, units joined directly phosphodiester-linked; [ ] holds rarer units or linkages, { } end groups; capitals alone tell only the bases. e = 2'-O-(2-methoxyethyl) (MOE); [5mC] = 5-methylcytosine; d = 2'-deoxy (DNA)
Overview of reported percent inhibition of PKK at 3.33 μM across a group of substances:

substance	units_of_measure	percent inhibition of PKK at 3.33 μM
530992 (eG*eT*e[5mC]*eA*e[5mC]*dA*dT*dT*d[5mC]*dA*dA*dT*dT*d[5mC]*dT*eT*e[5mC]*eT*e[5mC]*e[5mC]; antisense) [compound 530992]	%	83
530988 (eT*e[5mC]*e[5mC]*eA*eA*dA*dG*dT*d[5mC]*dA*dA*d[5mC]*dT*d[5mC]*d[5mC]*e[5mC]*eG*eG*eG*eT; antisense) [compound 530988]	%	86
530959 (antisense eT*e[5mC]*eA*eA*e[5mC]*dA*d[5mC]*dT*dG*d[5mC]*dT*dA*dA*d[5mC]*d[5mC]*eT*eT*eA*eG*eA) [compound 530959]	%	80
531004 (eA*eG*eA*eG*eT*dA*dA*d[5mC]*d[5mC]*dA*dG*dA*dG*d[5mC]*dT*e[5mC]*e[5mC]*e[5mC]*eT*eT; antisense) [compound 531004]	%	71
531231 (eT*eA*eT*e[5mC]*eA*d[5mC]*dT*dG*dT*dA*d[5mC]*dT*dA*dG*dT*eT*eT*e[5mC]*e[5mC]*eT) [compound 531231]	%	89
531078 (eA*eG*e[5mC]*eA*eG*d[5mC]*dT*d[5mC]*dT*dG*dA*dG*dT*dG*d[5mC]*eA*e[5mC]*eT*eG*eT; antisense) [compound 531078]	%	69
530933 (antisense eT*eG*eG*eA*eG*dG*dT*dG*dA*dG*dT*d[5mC]*dT*d[5mC]*dT*eT*eG*eT*e[5mC]*eA) [compound 530933]	%	67
531022 (eG*eT*eA*eA*eT*dG*dT*d[5mC]*dT*dG*dA*d[5mC]*dA*dG*dA*eT*eT*eT*eA*eA; antisense) [compound 531022]	%	62
530965 (antisense eG*eG*e[5mC]*eA*e[5mC]*dA*dG*dG*dG*d[5mC]*dT*dT*d[5mC]*dA*dG*eT*eG*eA*eG*eA) [compound 530965]	%	83
